experiment: soluble on expression in E. coli; label from the status in PepcDB or PDB records
assay-endpoint: soluble on expression in E. coli

Can you look up the measured soluble on expression in E. coli of `MGIHKPKFYAVRAGRDKGVFSSWEECRKAIYGFSGAVYRSFPTLEEAQAWFKGETLSDPLKAEDDSLRDDRTEYDVYTDGSYVNGQYAWAYAFVKDGKVHYEDADVGKNPAAATMRNVAGEIAAALYAVKKASQLGVKIRILHDYAGIAFWATGEWKAKNEFTQAYAKLMNQYRGIYSFEKVKAHSGNEFNDYVDMKAKSALGIRDLEHHHHHH` for me?
not soluble

Repeat for the following sequence: `MKSIVEKLNLTKYQQLVILNRPQGEYLSEFASAAQQLPSEPVELIFAFVKTMAEFQEIVSMVIEGQHLVENGLLYVAYPKKGNKMYPTFVHRDEIFPTLQVNEADGYIKGSTLKFNRMVSLDETFTVVGMKNVLKKLAKNQTSSAVGDYVQYLPEIEALVQTEPAAAATFAALTPGYQKEWARYVFSAKRAETRKKRQTEMLVILKEGYKTKALYQQRKK`
not soluble

* * *

test: soluble on expression in E. coli; label from the status in PepcDB or PDB records
assay-endpoint: soluble on expression in E. coli

Which soluble on expression in E. coli is listed for `MGSDKIHHHHHHMTWKSVNFDWNHIRAFLVTAEEGTLSAAAKALGLTQPTLSRQVSALETELCITLFERVGQRLVLTSSGLKLLEHARGMGDAALEFSLAVTGQSQKIEGSVIVSAGELTAAYMLPKIISKLRREEPGIDIEVVVTNEASDLKRREADIAIRSFHPTQNDLIAKKIGEEVIWLYGTPEYLDQLPTIPSFSELKDIQIIGFDRSNSLTDVLNKQGWQLSKKNFSLITSFQLLQLALCKEGQGVIFYPEQMGDQEPNLVRAYEHLGPVMKLPVWLVCHQELRTSLRVRRVFDFIATELSDNFY` ?
not soluble

Then what about the sequence `MGSDKIHHHHHHMSKLNMKEWINEIIQKKEVVAMPIMTHPGIEMIGKTVRDAVTDGQVHYNAIKALSEKYPTAAATVIMDLTVEAEAFGAEIVFPENEVPSVVGRLLNDEEAIDKLEIPALNKGRIPQYLKANMLAAKTITDRPVFAGCIGPYSLAGRLYDMSEIMMLIYINPEAANSLLKKCSDFILRYCMALKATGVNGVVMAEPAAGLLSDEDCTQYSSVFIKEIVEKVQDDHFTVILHNCGNTGHCTKAMVATGAAAYHFGNKIDMVEALKEVPADALAMGNLDPVSLFKAATPEVMKKATLDLLEATRSYPNFVLSSGCDTPPHTPSENIDAFFAALNEFNNA` ?
not soluble

* * *

assay: soluble on expression in E. coli; label from the status in PepcDB or PDB records
assay-endpoint: soluble on expression in E. coli

// worked examples, soluble on expression in E. coli included
Reported soluble on expression in E. coli, sequence `QEPFHVVTPLLESWALSQVAGMPVFLKCENVQPSGSFKIRGIGHFCQEMAKKGCRHLVCSSGGNAGIAAAYAARKLGIPATIVLPESTSLQVVQRLQGEGAEVQLTGKVWDEANLRAQELAKRDGWENVPPFDHPLIWKGHASLVQELKAVLRTPPGALVLAVGGGGLLAGVVAGLLEVGWQHVPIIAMETHGAHCFNAAITAGKLVTLPDITSVAKSLGAKTVAARALECMQVCKIHSEVVEDTEAVSAVQQLLDDERMLVEPACGAALAAIYSGLLRRLQAEGCLPPSLTSVVVIVCGGNNINSRELQALKTHLGQ` : ____
soluble

Also, `MGSDKIHHHHHHMSKVFIVGAAGNVGRRLTQQLAQRGHTLMAMHRHPDQADAIQAAGGVSVLGDITQISATDLATLMSGNDAIVFSAGAGGKGIQLTNDVDGKGLELAVEAAQLAGIQRFILVSVFPDALRGGSVSASFENYMLVKKHADVHLVSTDLDWVILRPGTLLDEVGTGKVNAAVAIPYGSVSRDDVAATLVELIEQPKVNRIIIELTQGEIPINDAISRLVAQ` please.
not soluble

# iterate: `MGSDKIHHHHHHMPRKTTSLCRRILLENYTTRGEKMITNLSDRVFVIGTGTSANSVLVCGKKFCVLFDSTLFPEKARKIKEFAAEILGKEIAVVFNTHYHPDHTFGNEVFDRIISHSLTRKSLEEMDEEYIRKIGVEVSLKFPDETFSERENYRFGDIVVEAVHLGGHTPDSSIFVLKNEKIVICGDLLTTGIHAEIVTDSDLFGWIEALSEIEKIRADYFVPGHGKVGTIEDVRNMKDYISKVLRFREGSVKHSELLEDPNFINREHPELLTWGLENIIR`
not soluble

Check `MGFGDIQTQPGTYSMHHMTTSTRITSRFLKNKTTNMKRLGVDPPCGVPEPKEDVLLAVSCDAFAFGQDDTNNDRITVEWTNTPDGAAKQFRREWF` too.
not soluble

Another sequence to look at: `MAPLLHQVSNYGYGKCVTVRFCDGKTYDAKDGESRAINRDLNVGAVKIYRDSKDEDQAYVLNYFPYNLELNDNRGKNKGLQGYRVLIWKQYGTINLDVFYDEMKIWCKTNDLGIYTSDGELKYYKSVIARHREEGGISVIGFETAEGATTAAAKKEEDENEEASAKVKEANEEESTNA`
soluble

Could you now consider this next sequence?
For the sequence shown here, `MQEILIPLKEKNYKVFLGELPEIKLKQKALIISDSIVAGLHLPYLLERLKALEVRVCVIESGEKYKNFHSLERILNNAFEMQLNRHSLMIALGGGVISDMVGFASSIYFRGIDFINIPTTLLAQVDASVGGKTGINTPYGKNLIGSFHQPKAVYMDLAFLKTLEKREFQAGVAEIIKMAVCFDKNLVERLETKDLKDCLEEVIFQSVNIKAQVVVQDEKEQNIRAGLNYGHTFGHAIEKETDYERFLHGEAIAIGMRMANDLALSLGMLTLKEYERIENLLKKFDLIFHYKILDLQKFYERLFLDKKSENKTIKFILPKGVGAFEVASHIPKETIIKVLEKWH` , give the reported soluble on expression in E. coli.
soluble

* * *

assay: soluble on expression in E. coli; label from the status in PepcDB or PDB records
assay-endpoint: soluble on expression in E. coli

I'd like to know its soluble on expression in E. coli. The sequence in question is `SYLGSEFDNVELKDLANVLSFGEAKLGDNGQKFNFLFHTASSNVWVPSIKCTSESCESKNHYDSSKSKTYEKDDTPVKLTSKAGTISGIFSKDLVTIGKLSVPYKFIEMTEIVGFEPFYSESDVDGVFGLGWKDLSIGSIDPYIVELKTQNKIEQAVYSIYLPPENKNKGYLTIGGIEERFFDGPLNYEKLNHDLMWQVDLDVHFGNVSSKKANVILDSATSVITVPTEFFNQFVESASVFKVPFLSLYVTTCGNTKLPTLEYRSPNKVYTLEPKQYLEPLENIFSALCMLNIVPIDLEKNTFVLGDPFMRKYFTVYDYDNHTVGFALAKNL`
soluble

What about this sequence? `MQPDVSFAPDVSFVIASYNAEATLDRAIASAIAQKGVSVEIIVVDDQSRDATLDVARAYPGDIVRVVALAKNRGPGGARNAGLDVARGRWIAVLDSDDAVFPGRLAAMISRAEKADAQIAVDNLQVIREDGVVEDAMFPRQYLEGLREISLATYIAGNVVFESKFNLGYLKPIFQRRFLDENRLRYDEQLRIGEDYILFAEALAKGGRCVVEPAIGYAYHIRSGSISRVLELHHVEAMRKADAVFAQTHRMDEAAQVAFARRGRSLRKAASFLAMVQHIKARSPLKAIRTALSDPAAVRHMGMPIAVRLRRVAAQFAVGAGRLEHHHHHH`
soluble

* * *

assay: soluble on expression in E. coli; label from the status in PepcDB or PDB records
assay-endpoint: soluble on expression in E. coli

See these solved cases before continuing.
Entry `MGSKYSKATNSINDALSSSYLVPFESYRVPLVDLEEATNNFDHKFLIGHGVFGKVYKGVLRDGAKVALKRRTPESSQGIEEFETEIETLSFCRHPHLVSLIGFCDERNEMILIYKYMENGNLKRHLYGSDLPTMSMSWEQRLEICIGAARGLHYLHTRAIIHRDVKSINILLDENFVPKITDFGISKKGTELGQTHLSTVVKGTLGYIDPEYFIKGRLTEKSDVYSFGVVLFEVLCARSAIVQSLPREMVNLAEWAVESHNNGQLEQIVDPNLADKIRPESLRKFGDTAVKCLALSSEDRPSMGDVLWKLEYALRLQESVIHHHHHH` : reported soluble on expression in E. coli = ?
soluble

Consider next the sequence `MGSDKIHHHHHHMFQSDLKLIVFQHGFFGERFVANLMNYPNSCPSYGACGIDGCTQCKEGLYNFSKNIIAVFSMPDPTTMPDFIENAEDFLPKVIPEADIAVAINLHPDVLAVMPEKLKGKVKALIVPVEEPRWCSPGLAKQIREKCDELGLEFAAPKPFCNLRPSEEHPTINRMIEEMRIGYPEFEIELLEDGKAYVRISRSQPCGCAYYIGVKLRGFDFSEVKEGKMRELWNVVAEAHHSYPCTASMERDNEYNETLLHVGGYIARHAVNRALGYEGDEDIPEHIKHIVL` in the same way.
not soluble

Param item: `MRGSHHHHHHTDPALRANITPFPTLSPATIDAINVIGQWLAQDDFSGEVPYQADCVILAGNAVMPTIDAACKIARDQQIPLLISGGIGHSTTFLYSAIAQHPHYNTIRTTGRAEATILADIAHQFWHIPHEKIWIEDQSTNCGENARFSIALLNQAVERVHTAIVVQDPTMQRRTMATFRRMTGDNPDAPRWLSYPGFVPQLGNNADSVIFINQLQGLWPVERYLSLLTGELPRLRDDSDGYGPRGRDFIVHVDFPAEVIHAWQTLKHDAVLIEAMESRSLRGLCGR`
soluble

Next record, please: `MGSDKIHHHHHHMFEIKVSQEIKNACPVFAGAAVYAAVKNTAYCDGLWKEINTFTEDLTTTTQMADIKLQPVIAATREAYKRCGKDPGRYRPSAEALRRRLMRGIPLYQIDTLVDLINLVSLRTGHSIGGFDADKIQGNHLELGIGKAEEPFEGIGRGILNIEGLPVYRDSFGGIGTPTSDHERTKMDIGTTHILAIVNGYNGKEGLKEAAEMIQSLLKDYAGSDGGELIYFE`
not soluble

Another sequence: `MSLSTIDLHVHSNYSDGIHPPADLVKMAAERGLVAIAIADHDTVDGIDEALIAGARLGVEVVPAVELSAEHGRYRDMHILGYHLDHRDPRLVDMLAEFRINREIRGRAIVDKINQRLADGRKPLLSYDEVLNLAEGAVGRPHIGRMLIERGYARNMEDAFRRYLIPCNVPKRYIPAGDAITEIRRAGGVAVLAHPITVSDDRQVLRGIVSELVALGLDGIEVFNNMCYKDDMLFLEFLCRESGLLMTGGSDFHGFEDDVEIGSGRGGLAVSHRLAEAVKNLAESRRITPPGSRTEGHHHHHH`
soluble

Also `MTVSTPPSIATGNAPSPDYRVEILSESLPFIQKFRGKTIVVKYGGAAMTSPELKSSVVSDLVLLACVGLRPILVHGGGPDINRYLKQLNIPAEFRDGLRVTDATTMEIVSMVLVGKVNKNLVSLINAAGATAVGLSGHDGRLLTARPVPNSAQLGFVGEVARVDPSVLRPLVDYGYIPVIASVAADDSGQAYNINADTVAGELAAALGAEKLILLTDVAGILENKEDPSSLIKEIDIKGVKKMIEDGKVAGGMIPKVKCCIRSLAQGVKTASIIDGRRQHSLLHEIMSDEGAGTMITG` , if possible.
soluble

Note, next up: `MGSDKIHHHHHHMLTTGTTRITGDRKLNDLIGHLIDPQLVEVEAAPQIKAMATSRLNFKMQKQTQTNWCWAAVSASVGNFYRTGSWTQCGVASASLDRNCCNQPGPCNIYGYLDSALRITRSYNGMNRGSLQMSAIRNQIKKGRPIGLRCAWYGGGAHFLVIYGTDGDYLLIADSIYGYSTRALNSFPRLYKSGGNWTDTYFTVKK`
not soluble

Likewise for `MSLDIRGMTVEEAEPVVKKFIDDLMMNGISKGYIIHGKGTGKLASGVWEILRKDKRVVSFRFGTPSEGGTGVTVVEVKEGHHHHHH` ?
not soluble

Another: `MAHHHHHHMGTLEAQTQGPGSMENKEKIYEGKAKIIFATLNPLEVIQHFKDEITAFNNKKAAIIHEKGILNNYISSFLMKKLIDKGIKTHFISLLNQREQLVKKITIIPIEVVIRNLAAGNFSKRFQIADGTPFKSPIIEFYYKNDELSDPMVSEGHILSFQWLTNQELEKIKILSLKINNILSELFFNVGIKLVDFKLEFGKLHNDEQSDLFLADEISPDTCRLWDISTNKRLDKDRYRLNLGNVIEGYREVAHKLNAIPNL`
soluble

Moving on to the next sequence: `SNAMAAKKPLFEVIASKIKDSINRDEYKTGMLMPNETALQEIYSSSRTTIRRAVDLLVEEGLVVRKNGVGLYVQPKLTAQNILEMTGVMKNDTNENLKKDIKDFYIRKAGKFYAEIFGMKENELVYSIKFVQKSEHGATLDRLILPLGLYPDLQAKDFQIINIIELVNSGKYKLFELEQELQLILAGNEQIKNMHLNENDPVFKLSSVFYAENDMPIAIQYHYEDAESTKYVVDFN`
soluble

Could you now consider this next sequence?
Could you tell me which soluble on expression in E. coli is on file for `MGSSHHHHHHSSGTIEGRMIRLTDNRPIGFIDSGVGGLTVVKEALKQLPNENILFVGDTARCPYGPRPAEQVIQYTWEMTDYLVEQGIKMLVIACNTATAVALEEIKAALSIPVIGVILPGTRAAVKKTQNKQVGIIGTIGTVKSQAYEKALKEKVPELTVTSLACPKFVSVVESNEYHSSVAKKIVAETLAPLTTKKIDTLILGCTHYPLLRPIIQNVMGENVQLIDSGAETVGEVSMLLDYFNLSNSPQNGRTLCQFYTTGSAKLFEEIAEDWLGIGHLNVEHIELGGK` ?
soluble
